Tested on: T. cruzi INC-5 epimastigotes
Assay: Viability (MTT) assay on T. cruzi epimastigotes
Format: cell-based, Trypanosoma cruzi
Conditions: Trypanosoma cruzi, 24 h, mean and SD of triplicate
Method: In this study, two strains of T. cruzi isolated in Mexico were used. […] Viability assays of T. cruzi epimastigotes using 3-(4,5-dimethylthiazol-2-yl)-2,5-diphenyltetrazolium bromide (MTT) were performed. […] Each condition was assessed in triplicate. […] Finally, the plate was read at 570 nm in a spectrophotometer (Multiskan EX Thermo Electron, Taipei, Taiwan). […]
Provide the reported IC50 of each item.
Numbers only, in µM.

Value sought for every listed molecule: IC50.
1. CCOC(=O)c1c(C(F)(F)F)[n+]([O-])c2ccc(C(=O)OC(C)C)cc2[n+]1[O-]
2. O=C(Cn1ccnc1[N+](=O)[O-])NCc1ccccc1 [Bnz, benznidazole, reference compound]
3. CCCOC(=O)c1ccc2c(c1)[n+]([O-])c(C(N)=O)c(C)[n+]2[O-]

Resp:
1: 5.2; 2: 42.3; 3: 238

Req: Report IC50, nothing else, for this molecule: `Cc1c(C(=O)c2ccccc2)[n+]([O-])c2cc(C(=O)OC(C)C)ccc2[n+]1[O-]`
Resp: 142
